- procedureText: protein stability index of a GFP-peptide fusion (yeast GPS) (PSI 1-4); higher = more stable; sorted into four equal gates, so the index is relative within each strain
- assayConditions: doa10∆
# if value of protein stability index reaches 3, tag Y; if it stays below, tag N

1) KLPKVYKRSIVRNYKPL [SWI1] :: N
2) SALWSSRKGIAFGLGAI [ECM29] :: N
3) LNENARELEQIKPKIAL [SNF12] :: Y
4) RAGIIIAKLSVIPIRRG [RPS2] :: N
5) SLDEILLPANLLSLNSV [SRP68] :: Y

----------
Each item that follows carries a reported protein stability index.
- procedureText: protein stability index of a GFP-peptide fusion (yeast GPS) (PSI 1-4); higher = more stable; sorted into four equal gates, so the index is relative within each strain
- assayConditions: ubr1∆
measuredAttribute: protein stability index

1. ERHGYIRGIVKQIVHDS [RPL2A] :: 1.79
2. YSDIGGLESQIQEIKES [RPT2] :: 2.52
3. VLRTALVHDGLARGLRE [RPS12] :: 3.25
4. TLKDYQIKGLQWMVSLF [SNF2] :: 2.76
5. VHRDDPALVGKLRGDLR [SNF6] :: 2.88
6. MTLNRKCVVIHNGSHRT [ARP7] :: 2.66
7. GTNNISQHGQGNNPSWV [YDL088C/ASM4] :: 3.12
8. KLDIISDPESERPAIEF [RPN14] :: 3.18
9. TNAKLPNVDLVTALEVL [RGR1] :: 2.26
10. EKLYIFYKLNMPDEFNT [SRP72] :: 1.6
11. LERVKANAAKRAEAKAQ [RPL21A] :: 3.14
12. RSVRIPWYNNPVSCIIQ [PRP8] :: 2.55
13. GIRIKGKIVGFDEFMNV [SME1] :: 3.12
14. GTCFGGSKLEDMSKILV [RET1] :: 3.45
15. MKTPSLTVYLEPGHAAD [RPO21] :: 3
16. LNLFSNVLKAPFIKSES [SIR4] :: 1.79
